Tested on: Clostridium tertium
Experiment: Antibacterial activity against Clostridium tertium by CLSI M11-A6 agar dilution method
Type: functional
Form field: MIC90 (one value per entry).
Readout type: MIC90 (µg/mL)

Cc1ncc([N+](=O)[O-])n1CCO: 1
CCCCCCCCCCNCCN[C@@]1(C)C[C@H](O[C@H]2[C@H](Oc3c4cc5cc3Oc3ccc(cc3Cl)[C@@H](O)[C@@H](NC(=O)[C@@H](CC(C)C)NC)C(=O)N[C@@H](CC(N)=O)C(=O)N[C@H]5C(=O)N[C@H]3C(=O)N[C@H](C(=O)N[C@H](C(=O)O)c5cc(O)c(CNCP(=O)(O)O)c(O)c5-c5cc3ccc5O)[C@H](O)c3ccc(c(Cl)c3)O4)O[C@H](CO)[C@@H](O)[C@@H]2O)O[C@@H](C)[C@H]1O: 0.25
CC(=O)NC[C@H]1CN(c2ccc(N3CCOCC3)c(F)c2)C(=O)O1: 4
CCCCCCCCCC(=O)N[C@@H](Cc1c[nH]c2ccccc12)C(=O)N[C@H](CC(N)=O)C(=O)N[C@@H](CC(=O)O)C(=O)N[C@@H]1C(=O)NCC(=O)N[C@@H](CCCN)C(=O)N[C@@H](CC(=O)O)C(=O)N[C@H](C)C(=O)N[C@@H](CC(=O)O)C(=O)NCC(=O)N[C@H](CO)C(=O)N[C@@H]([C@H](C)CC(=O)O)C(=O)N[C@@H](CC(=O)c2ccccc2N)C(=O)O[C@@H]1C: 8
CCC[C@@H]1C[C@@H](C(=O)N[C@@H]([C@H]2O[C@H](SC)[C@H](O)[C@@H](O)[C@H]2O)[C@H](C)Cl)N(C)C1: 4
CN[C@H](CC(C)C)C(=O)N[C@H]1C(=O)N[C@@H](CC(N)=O)C(=O)N[C@H]2C(=O)N[C@H]3C(=O)N[C@H](C(=O)N[C@H](C(=O)O)c4cc(O)cc(O)c4-c4cc3ccc4O)[C@H](O)c3ccc(c(Cl)c3)Oc3cc2cc(c3O[C@@H]2O[C@H](CO)[C@@H](O)[C@H](O)[C@H]2O[C@H]2C[C@](C)(N)[C@H](O)[C@H](C)O2)Oc2ccc(cc2Cl)[C@H]1O: 4

====

Catalogue of molecules with associated MIC50
Tested on: Fusobacterium varium
Assay: Antibacterial activity against Fusobacterium varium by CLSI M11-A6 agar dilution method
Type: functional
Readout type: MIC50

Cc1ncc([N+](=O)[O-])n1CCO: ≤ 0.12 µg/mL
CCCCCCCCCC(=O)N[C@@H](Cc1c[nH]c2ccccc12)C(=O)N[C@H](CC(N)=O)C(=O)N[C@@H](CC(=O)O)C(=O)N[C@@H]1C(=O)NCC(=O)N[C@@H](CCCN)C(=O)N[C@@H](CC(=O)O)C(=O)N[C@H](C)C(=O)N[C@@H](CC(=O)O)C(=O)NCC(=O)N[C@H](CO)C(=O)N[C@@H]([C@H](C)CC(=O)O)C(=O)N[C@@H](CC(=O)c2ccccc2N)C(=O)O[C@@H]1C: > 128 µg/mL
CCCCCCCCCCNCCN[C@@]1(C)C[C@H](O[C@H]2[C@H](Oc3c4cc5cc3Oc3ccc(cc3Cl)[C@@H](O)[C@@H](NC(=O)[C@@H](CC(C)C)NC)C(=O)N[C@@H](CC(N)=O)C(=O)N[C@H]5C(=O)N[C@H]3C(=O)N[C@H](C(=O)N[C@H](C(=O)O)c5cc(O)c(CNCP(=O)(O)O)c(O)c5-c5cc3ccc5O)[C@H](O)c3ccc(c(Cl)c3)O4)O[C@H](CO)[C@@H](O)[C@@H]2O)O[C@@H](C)[C@H]1O: > 64 µg/mL
CCC[C@@H]1C[C@@H](C(=O)N[C@@H]([C@H]2O[C@H](SC)[C@H](O)[C@@H](O)[C@H]2O)[C@H](C)Cl)N(C)C1: 1 µg/mL
CN[C@H](CC(C)C)C(=O)N[C@H]1C(=O)N[C@@H](CC(N)=O)C(=O)N[C@H]2C(=O)N[C@H]3C(=O)N[C@H](C(=O)N[C@H](C(=O)O)c4cc(O)cc(O)c4-c4cc3ccc4O)[C@H](O)c3ccc(c(Cl)c3)Oc3cc2cc(c3O[C@@H]2O[C@H](CO)[C@@H](O)[C@H](O)[C@H]2O[C@H]2C[C@](C)(N)[C@H](O)[C@H](C)O2)Oc2ccc(cc2Cl)[C@H]1O: > 128 µg/mL
